Tested on: HOP-62 NSCLC
testSummary: NCI-60 one-dose screen, 48 h
conditionContext: 10 µM
Compounds without any hit were thinned out: in the full panel of roughly 83,000, 20% have a hit. The source made the active and inactive calls. How the source made its calls: active means growth percent below 10; inactive means the rest.
Your answer must be one of the following: active, inactive

Recorded results for 2 compounds are shown here.
* CCC(CC)n1c(C)cc(=O)n1C(CC)CC | inactive
* CCOC(=O)c1cc(C(=O)c2ccc(F)cc2F)n2ccccc12 | inactive

--- query ---
Hi team, can someone confirm the assay call for COC1=CC(=O)OC(c2ccc(OC)cc2)C1 (configuration not stated) ?
inactive

----------
Tested on: EKVX NSCLC
testSummary: NCI-60 one-dose screen, 48 h (100 = growth as untreated, 0 = no growth, -100 = all killed)
conditionContext: 10 µM
This is part of a sample that, as a whole, favours compounds with a hit. Of some 83,000 tested, about 20% had one in any assay.
resultType: growth (%)
// note: answer is a bare numeric in %

Below are worked cases with known answers.
* Oc1ccc(-c2[nH]c3ccccc3c2-c2nc3ccccc3o2)cc1 | 83
* O=C1Cc2cc(CCN3CCN(c4nsc5ccccc45)CC3)c(Cl)cc2N1 | 88.1
* Nc1ncnc2c1ncn2C1(CO)OCC(O)C(O)C1O (centres undefined) | 100

Now for a further molecule.
Complete the entry with growth for COc1cc(-c2nn(-c3cccc(NC(=O)NCCNS(=O)(=O)c4ccc(Cl)cc4)c3)cc2-c2ccncc2)ccc1Cl
29.8

----------
Test system: UACC-257 melanoma
testSummary: NCI-60 one-dose screen, 48 h
conditionContext: 10 µM
Compounds without any hit were thinned out: in the full panel of roughly 83,000, 20% have a hit. Active and inactive are the calls of the source. The calls were made as follows: active = growth percent below 10; inactive = the rest.
Your answer must be one of the following: active, inactive

* CC(=O)/C(=C/c1ccc(Br)cc1)C(=O)c1ccccc1 | inactive

--- query ---
Hi team, can someone confirm the assay call for COc1ccc(C2CC(c3cc(OC)c(OC)c(OC)c3)=NN2)cc1 (stereo unspecified) ?
inactive

----------
Items are presented alongside their recorded growth.
Test system: HT29 colon
testSummary: NCI-60 one-dose screen, 48 h (100 = growth as untreated, 0 = no growth, -100 = all killed)
conditionContext: 10 µM
Experimental: Growth inhibition of the HT29 human tumor cell line is measured as a screen for anti-cancer activity. Cells are grown in 96 well plates and exposed to the test compound for 48 hours. Compounds are tested at a single concentration, which is 10^-5 M for most compounds. The reported endpoint is percent growth (GI% or GIPRCNT), where numbers from 0 - 100% represent growth inhibition, and numbers from -100% - 0 represent cell death. For example, a value of 40 represents 60% growth inhibition. […]
The panel holds about 83,000 compounds, 20% with a hit somewhere; the sample as a whole holds those more often.
// note: answer is a bare numeric in %

* CCN(CC)CCOc1ccc2c(c1O)C(=O)c1ccccc1C2=O | 68.1
* Fc1ccc2[nH]cc(-c3nc(-c4ccsc4)cs3)c2c1 | 100
* O=C(CCCCCCC(=O)Nc1ccccc1)NO | 7.15
* CCc1ccc(C2=NN(c3ccc(S(C)(=O)=O)cc3)C(=O)CC2)cc1 | 11.5
* CC(=O)C1N=NCC1c1ccccc1 (configuration not stated) | 105

Complete the entry with growth for O=C(CN1CCN(C(=O)c2ccccc2)CC1)Nc1ccccc1SCc1ccccc1
81

Complete the entry with growth for COc1ccc(/C(C#N)=C/c2cccc(OC)c2OC)cc1
59.8

Complete the entry with growth for Cc1[nH]c2ccccc2c1/C=N/Nc1ncnc2sc3c(c12)CCN(CC(=O)OC(C)(C)C)C3
41.8

Complete the entry with growth for COc1ccc(C(=O)N/N=C/c2cc(C(F)(F)F)ccc2Cl)cc1
99.7

----------
Test system: SR leukemia
testSummary: NCI-60 one-dose screen, 48 h (100 = growth as untreated, 0 = no growth, -100 = all killed)
conditionContext: 10 µM
The panel holds about 83,000 compounds, 20% with a hit somewhere; the sample as a whole holds those more often.
Items are presented alongside their recorded growth.
// note: answer is a bare numeric in %

* O=C1CC(SC(=S)C2CCCC2=O)C(=O)N1 (stereo not given) | 89.9

Complete the entry with growth for CCC(C)[C@H](NC(C)=O)C(=O)N[C@@H](CCCNC(=N)N)C(=O)N[C@@H](CCCCN)C(=O)N[C@@H](CC1CCC(O)CC1)C(=O)NC(C(=O)N[C@@H](CCSC)C(=O)N[C@@H](CCCNC(=N)N)C(=O)N[C@@]1(C)CCC/C=C\CCC[C@@](C)(C(=O)NC(C(=O)N[C@@H](CCC(=O)O)C(=O)N[C@@H](CC(C)C)C(=O)N[C@H](C(=O)N[C@@H](CCC(=O)O)C(N)=O)C(C)C)[C@@H](C)O)NC(=O)[C@H](CCC(N)=O)NC(=O)[C@H](CC(C)C)NC(=O)[C@H](CC(C)C)NC1=O)[C@@H](C)O (stereo not given in full)
98.5

Complete the entry with growth for COc1ccc(C(=O)COc2cccc(/C=C3\Cc4ccccc4C3=O)c2)cc1
56.7

Complete the entry with growth for N#Cc1ccc(C(=O)CSc2nccc(Nc3ccc(C(=O)O)cc3)n2)cc1
106

Complete the entry with growth for Cc1ccc(/C=C/C(=O)C(=O)/C=C/c2ccc(C)cc2)cc1
68

Complete the entry with growth for C=CCNCCN1C(=O)c2ccc3c4c(ccc(c24)C1=O)C(=O)N(CCNCC=C)C3=O
-8.69

Complete the entry with growth for COc1ccc(-c2nn(-c3cccc(Cl)c3)cc2-c2c(C#N)c(=O)n3[nH]c(-c4ccccc4)nc3c2C#N)cc1
71.2

Complete the entry with growth for COc1ccc(-c2cc(-c3ccc(Cl)cc3)nc(SCCCC(=O)NO)n2)cc1
22.8

Complete the entry with growth for CC(C)(C)c1ccc(S(=O)(=O)Oc2ccc(NC(=O)C3CCCCC3)cc2)cc1
42.6

----------
Tested on: MOLT-4 leukemia
testSummary: NCI-60 one-dose screen, 48 h (100 = growth as untreated, 0 = no growth, -100 = all killed)
conditionContext: 10 µM
Compounds without any hit were thinned out: in the full panel of roughly 83,000, 20% have a hit.
The label is fulfilled for growth below 40% and not fulfilled for growth equal to or exceeding 40%.

Recorded results for 3 compounds are shown here.
• COc1ccc(-c2n[nH]nc2-c2cc(OC)c(OC)c(OC)c2)cc1 = fulfilled
• C[N+]1(CCCCC[N+]2(C)CCCC2)CCCC1 = not fulfilled
• CC(CN(C)C)Oc1ccccc1NC1=C(Cl)C(=O)C(Nc2ccccc2OC(C)CN(C)C)=C(Cl)C1=O (stereo unspecified) = fulfilled

--- query ---
Decide: growth of COc1cc2cc(Oc3ccc(NC(=O)c4cccc(C(F)(F)F)c4)cc3)c(C)nc2cc1OC strictly below 40%?
fulfilled

----------
Items are presented alongside their recorded growth.
Tested on: SK-MEL-28 melanoma
testSummary: NCI-60 one-dose screen, 48 h (100 = growth as untreated, 0 = no growth, -100 = all killed)
conditionContext: 10 µM
The panel holds about 83,000 compounds, 20% with a hit somewhere; the sample as a whole holds those more often.
// note: answer is a bare numeric in %

Below are worked cases with known answers.
* O=c1oc2c(cc1-c1ccc(F)cc1)C(O)Oc1ccccc1-2 (stereo not drawn) | 88.6
* O=C1Cc2cc(CCN3CCN(c4nsc5ccccc45)CC3)c(Cl)cc2N1 | 90.3

Now for a further compound.
Complete the entry with growth for O=C1c2ccccc2C(=O)c2c1ccc(C(Br)Br)c2Cl
92.3

----------
System: UO-31 renal
testSummary: NCI-60 one-dose screen, 48 h
conditionContext: 10 µM
About 83,000 compounds went through this panel and 20% of them were active in at least one assay; those are over-represented in the sample as a whole. The source made the active and inactive calls. The calls were made as follows: active = growth percent below 10; inactive = the rest.
Your answer must be one of the following: active, inactive

Recorded results for 5 compounds are shown here.
- Cc1ccccc1N1C(=O)c2cc(S(N)(=O)=O)c(Cl)cc2NC1C (configuration not stated): inactive
- CCCCCCCCCCCCCCCCCC[n+]1ccc2c(C)c3c(c(C)c2c1)c1cc(O)ccc1n3CC: inactive
- C[C@]12CC[C@@H]3c4ccc(O)cc4CC[C@H]3[C@@H]1CC[C@@H]2NS(=O)(=O)c1ccc(C(F)(F)F)cc1: inactive
- COc1cccc2ccc(CC(O)(c3ccccc3)c3ccccc3)nc12: inactive
- Cc1ccc(C2NC(=S)N3C(c4ccc(C)cc4)NC(=S)N23)cc1 (configuration not stated): inactive

Hi team, can someone confirm the assay call for COC(=O)c1cc2oc(/C=C3/SC(=S)N(N)C3=O)cc2n1Cc1ccccc1 ?
active

Hi team, can someone confirm the assay call for COc1cc(/C=C/c2cc(/C=C/c3ccc(O)c(OC)c3)n(C(=O)Nc3ccc(C)cc3)n2)ccc1O ?
active

Hi team, can someone confirm the assay call for COC(=O)C1(O)NC(=C(C#N)C#N)C(C#N)=C1C(=O)c1ccc(OC)c(OC)c1 (configuration not stated) ?
inactive

Hi team, can someone confirm the assay call for Cc1ccc(N=Nc2ccccc2)cc1 ?
inactive

Hi team, can someone confirm the assay call for COc1ccc(-c2cc(-c3ccc(Cl)cc3)nc(SCCCCCCC(=O)NO)n2)cc1OC ?
inactive

Hi team, can someone confirm the assay call for NS(=O)(=O)c1ccc(Br)cc1 ?
inactive

Hi team, can someone confirm the assay call for CC1=NN(C(=O)c2nn(-c3ccc(Cl)cc3)cc2O)C(=O)C1 ?
inactive

Hi team, can someone confirm the assay call for O=C1c2ccccc2C(=O)c2c1ccc1c(=O)n(-c3ccccc3C(F)(F)F)nnc21 ?
inactive
